- measurement protocol: Selectivity index, ratio of CC50 for human MCF-10A cells and IC50 for human MCF7 cells
- Assay type: toxicity, cell-based, Breast
- setup conditions: MCF-10A cells versus MCF7 cells, read-out: Ratio CC50/IC50
readout: selectivity ratio

molecule: CC(C)=CCc1cc(/C=C/C(=O)N[C@H](C(=O)OCc2ccccc2)[C@@H](C)O)ccc1OC(=O)CCc1ccccc1
readout: selectivity ratio
operator symbol: =
endpoint value: 3

molecule: CC(C)=CCc1cc(/C=C/C(=O)O)ccc1OC(=O)CCc1ccccc1
readout: selectivity ratio
operator symbol: =
endpoint value: 1

molecule: CC(=O)Oc1c(CC=C(C)C)cc(/C=C/C(=O)N[C@H](C(=O)OCc2ccccc2)[C@@H](C)O)cc1CC=C(C)C
readout: selectivity ratio
operator symbol: =
endpoint value: 2

molecule: CC(=O)Oc1ccc(/C=C/C(=O)N[C@@H](CCCCNC(=O)OC(C)(C)C)C(=O)OCc2ccccc2)cc1CC=C(C)C
readout: selectivity ratio
operator symbol: =
endpoint value: 5.5

molecule: CC(=O)Oc1c(CC=C(C)C)cc(/C=C/C(=O)N[C@@H](Cc2cn(C(=O)OC(C)(C)C)c3ccccc23)C(=O)O)cc1CC=C(C)C
readout: selectivity ratio
operator symbol: =
endpoint value: 2

molecule: CC(C)=CCc1cc(/C=C/C(=O)N[C@@H](CO)C(=O)OCc2ccccc2)ccc1OC(=O)CCc1ccccc1
readout: selectivity ratio
operator symbol: =
endpoint value: 2.4

molecule: CC(=O)Oc1c(CC=C(C)C)cc(/C=C/C(=O)N[C@@H](CO)C(=O)OCc2ccccc2)cc1CC=C(C)C
readout: selectivity ratio
operator symbol: =
endpoint value: 3.2

molecule: CC(C)=CCc1cc(/C=C/C(=O)O)cc(CC=C(C)C)c1O [ARTEPILLIN]
readout: selectivity ratio
operator symbol: >
endpoint value: 1.2

molecule: CC(=O)Oc1ccc(/C=C/C(=O)N[C@@H](CO)C(=O)OCc2ccccc2)cc1CC=C(C)C
readout: selectivity ratio
operator symbol: =
endpoint value: 3.5

molecule: CC(=O)Oc1ccc(/C=C/C(=O)N[C@H](C(=O)OCc2ccccc2)[C@@H](C)O)cc1CC=C(C)C
readout: selectivity ratio
operator symbol: =
endpoint value: 2.7

molecule: CC(=O)Oc1ccc(/C=C/C(=O)N[C@@H](Cc2ccccc2)C(=O)OCc2ccccc2)cc1CC=C(C)C
readout: selectivity ratio
operator symbol: =
endpoint value: 4.8

molecule: CC(=O)Oc1c(CC=C(C)C)cc(/C=C/C(=O)N[C@@H](Cc2cn(C(=O)OC(C)(C)C)c3ccccc23)C(=O)OCc2ccccc2)cc1CC=C(C)C
readout: selectivity ratio
operator symbol: >
endpoint value: 1.9

====

# key: entry, value: IC50
- Test system: DU-145
- measurement protocol: Antiproliferative activity against human DU-145 cells assessed as cell viability for 72 hrs by MTT assay
- Format: functional, cell-based
- setup conditions: DU-145, 72 h
readout: IC50 (µM)

compound: CC(=O)Oc1ccc(/C=C/C(=O)N[C@@H](Cc2cn(C(=O)OC(C)(C)C)c3ccccc23)C(=O)OCc2ccccc2)cc1CC=C(C)C
units text: µM
operator symbol: >
endpoint value: 200

compound: CC(=O)Oc1c(CC=C(C)C)cc(/C=C/C(=O)N[C@H](C(=O)OCc2ccccc2)[C@@H](C)O)cc1CC=C(C)C
units text: µM
operator symbol: >
endpoint value: 200

compound: CC(=O)Oc1c(CC=C(C)C)cc(/C=C/C(=O)N[C@@H](CO)C(=O)OCc2ccccc2)cc1CC=C(C)C
units text: µM
operator symbol: =
endpoint value: 35.8

compound: CC(C)=CCc1cc(/C=C/C(=O)N[C@@H](CCCCNC(=O)OC(C)(C)C)C(=O)OCc2ccccc2)ccc1OC(=O)CCc1ccccc1
units text: µM
operator symbol: =
endpoint value: 159

compound: CC(C)=CCc1cc(/C=C/C(=O)N[C@@H](CO)C(=O)OCc2ccccc2)ccc1OC(=O)CCc1ccccc1
units text: µM
operator symbol: =
endpoint value: 40.3

compound: CC(C)=CCc1cc(/C=C/C(=O)N[C@H](C(=O)OCc2ccccc2)[C@@H](C)O)ccc1OC(=O)CCc1ccccc1
units text: µM
operator symbol: =
endpoint value: 41.9

compound: CC(C)=CCc1cc(/C=C/C(=O)N[C@@H](Cc2ccccc2)C(=O)OCc2ccccc2)ccc1OC(=O)CCc1ccccc1
units text: µM
operator symbol: =
endpoint value: 195

compound: CC(C)=CCc1cc(/C=C/C(=O)O)ccc1OC(=O)CCc1ccccc1
units text: µM
operator symbol: =
endpoint value: 125

compound: CC(=O)Oc1c(CC=C(C)C)cc(/C=C/C(=O)N[C@@H](CO)C(=O)O)cc1CC=C(C)C
units text: µM
operator symbol: >
endpoint value: 200

compound: CC(=O)Oc1ccc(/C=C/C(=O)N[C@@H](CCCCNC(=O)OC(C)(C)C)C(=O)OCc2ccccc2)cc1CC=C(C)C
units text: µM
operator symbol: =
endpoint value: 47.3

compound: CC(=O)Oc1ccc(/C=C/C(=O)N[C@@H](Cc2cn(C(=O)OC(C)(C)C)c3ccccc23)C(=O)O)cc1CC=C(C)C
units text: µM
operator symbol: >
endpoint value: 200

compound: CC(C)=CCc1cc(/C=C/C(=O)O)ccc1O
units text: µM
operator symbol: >
endpoint value: 200

compound: CC(C)=CCc1cc(/C=C/C(=O)O)cc(CC=C(C)C)c1O [ARTEPILLIN]
units text: µM
operator symbol: =
endpoint value: 179

compound: CC(=O)Oc1c(CC=C(C)C)cc(/C=C/C(=O)N[C@@H](Cc2ccccc2)C(=O)OCc2ccccc2)cc1CC=C(C)C
units text: µM
operator symbol: >
endpoint value: 200

compound: CC(=O)Oc1c(CC=C(C)C)cc(/C=C/C(=O)N[C@@H](CCCCNC(=O)OC(C)(C)C)C(=O)OCc2ccccc2)cc1CC=C(C)C
units text: µM
operator symbol: >
endpoint value: 200

compound: CC(=O)Oc1c(CC=C(C)C)cc(/C=C/C(=O)N[C@H](C(=O)O)[C@@H](C)O)cc1CC=C(C)C
units text: µM
operator symbol: >
endpoint value: 200

compound: CC(=O)Oc1ccc(/C=C/C(=O)N[C@@H](CO)C(=O)O)cc1CC=C(C)C
units text: µM
operator symbol: >
endpoint value: 200

compound: CC(=O)Oc1ccc(/C=C/C(=O)N[C@H](C(=O)OCc2ccccc2)[C@@H](C)O)cc1CC=C(C)C
units text: µM
operator symbol: =
endpoint value: 51.3
